FYI, the data here is from paper PMC9482650.

- TARGET_OF_ASSAY: DLG1_3, Q12959
- Sequence (Q12959 457-571): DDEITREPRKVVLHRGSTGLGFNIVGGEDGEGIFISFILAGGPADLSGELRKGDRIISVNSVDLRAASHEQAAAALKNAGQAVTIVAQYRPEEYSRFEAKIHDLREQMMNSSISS
- METHOD_SUMMARY: holdup assay
- Parameters: key: below the threshold = too weak to quantify, mostly under pKd 3.1 to 4
- ASSAY_SETUP: plain residues with an end cap or a label only (N-terminal biotin on a linker: ado-ado)
PROPERTY: pKd

Worked cases, pKd given:
{"columns": ["BINDER", "pKd"],
 "data": [
  ["KPDKQEEFYA [SDC3, O75056]", "below the threshold"],
  ["KSRPENGTVC [TMEM178B, H3BS89]", "below the threshold"],
  ["PLPPEEESWV [GAS2L2, Q8NHY3]", "below the threshold"],
  ["EAVTVESTSL [SLC22A11, Q9NSA0]", "below the threshold"]
]}

### Prompt Item under review: QKASRNESTF [POLR1D, P0DPB6] . Reported pKd?
### Response below the threshold

### Prompt Item under review: FHSIKQSTAV [CRHR1, P34998] . Reported pKd?
### Response 3.96

### Prompt Item under review: FVFESRKEIL [TBPL1, P62380] . Reported pKd?
### Response below the threshold

### Prompt Item under review: VYEVPVETKF [SLC26A3, P40879] . Reported pKd?
### Response 3.6
